// reported pIC50 for each item listed
Molecular target: MNK1 (Homo sapiens, UniProt Q9BUB5)
Test: In vitro MNK kinase assay (Caliper LabChip mobility shift)
Assay type: biochemical
Settings: enzymatic, 1.2 mM ATP; read-out: IC50 Mnk1
pIC50: −log10 of the molar value.

smiles string: CN(CC(=O)N1CCOCC1)C(=O)c1ccc(-c2ccc3ncc(-c4ccc(C#N)cc4)n3c2)cc1
pIC50: > 7.00
--
smiles string: CC(=O)Nc1cc(-c2ccc3ncc(-c4ccc(C#N)cc4)n3c2)ccc1C(=O)N1CCOCC1
pIC50: > 7.00
--
smiles string: O=C1Cc2cc(-c3cnc4ccc(-c5ccc(C(=O)N6CCC(N7CCOCC7)CC6)cc5)nn34)ccc2N1
pIC50: > 7.00
--
smiles string: CCC1(NC(C)=O)CCN(C(=O)c2ccc(-c3ccc4ncc(-c5ccc(C#N)cc5)n4n3)cc2)CC1
pIC50: > 7.00
--
smiles string: CN1CCN(C(=O)c2ccc(-c3ccc4ncc(-c5ccc6[nH]ncc6c5)n4n3)cc2)CC1
pIC50: > 7.00
--
smiles string: CN1CCN(C(=O)c2ccc(-c3ccc4ncc(-c5ccc(C#N)cc5)n4n3)cc2)CC1=O
pIC50: > 7.00
--
smiles string: N#Cc1ccc(-c2cnc3cnc(-c4ccc(C(=O)N5CCC(N)CC5)c(Cl)c4)cn23)cc1
pIC50: > 6.00
--
smiles string: N#Cc1ccc(-c2cnc3ccc(-c4ccc(C(=O)N5CCC(CCN)CC5)cc4)cn23)cc1
pIC50: > 7.00
--
smiles string: CN1CCN(C(=O)c2ccc(-c3ccc4ncc(-c5ccc(C#N)cc5)n4c3)cc2Cl)CC1
pIC50: > 7.00
--
smiles string: CN1CCCN(C(=O)c2ccc(-c3ccc4ncc(-c5ccc(C#N)cc5)n4c3)cc2)CC1
pIC50: > 7.00
--
smiles string: Cc1cc(-c2ccc3ncc(-c4ccc(C#N)cc4)n3c2)ccc1C(=O)N1CCOCC1
pIC50: > 6.00
--
smiles string: CCN1CCN(C(=O)c2ccc(-c3ccc4ncc(-c5ccc(C#N)cc5)n4c3)cc2)CC1
pIC50: > 7.00
--
smiles string: Cc1cc(-c2cn3c(-c4ccc(C#N)cc4)cnc3cn2)ccc1C(=O)N1CCC(C)(N)CC1
pIC50: > 7.00
--
smiles string: CC(=O)Nc1cc(-c2ccc3ncc(-c4ccc(C#N)cc4)n3c2)ccc1C(=O)N1CCN(C)CC1
pIC50: > 6.00
--
smiles string: CC(=O)Nc1cc(-c2ccc3ncc(-c4ccc(C#N)cc4)n3c2)ccc1C(=O)N1CCNCC1
pIC50: > 7.00
--
smiles string: CN(C(=O)c1ccc(-c2ccc3ncc(-c4ccc(C#N)cc4)n3c2)cc1)c1ccncc1
pIC50: > 6.00
